assay: method code SF, from Hansch, C. & Leo, A. (1987). Log P database [Dataset]. Pomona College Medicinal Chemistry Project.
Threshold check on logP: at or above 2 gives True, strictly below gives False.

Molecule	Category
Cc1ccccc1OC(=O)N(C)C	False
CC(=O)OCCC(=O)N(C)c1ccc(S(=O)(=O)N(C)C)cc1	False
O=C1C=CC(=NCl)C=C1	False
C=C(Cl)Cl	True
O=C1C=CC(=O)c2c(O)cccc21	False
COC1=C[C@@]23CCCN2CCc2cc4c(cc2[C@@H]3[C@@H]1O)OCO4	False
CCC(C)NP(=O)(OC)Oc1cc(Cl)c(Cl)cc1Cl (stereo not given)	True
CCOC(=O)/C(=C/c1cccc(F)c1)C(C)=O	True
O=C1c2c(O)ccc(O)c2C(=O)c2c(NCCNCCO)ccc(NCCNCCO)c21	False
CC(=O)Oc1ccccc1C(C)C	True
CN(C=O)c1ccc(S(=O)(=O)N(C)C)cc1	False
c1cc2[nH]cnc2cn1	False
CCOCC1CNc2nc(N)[nH]c(=O)c2N1 (stereo not given)	False
CSc1ncnc2c1ncn2[C@@H]1O[C@H](CO)[C@@H](O)[C@@H]1O	False
FC(Cl)Cl	False
CC(=O)Nc1cccs1	False
CSC(=O)Nc1ccc(Cl)c(Cl)c1	True
O=C(O)c1ccc(NCc2ccccc2)cc1	True
CCOC(=O)NC(O)C(Cl)(Cl)Cl (stereo not given)	False
CN(C)S(=O)(=O)c1ccccc1	False
O=Cc1ccsc1	False
CCC(C)NC(=O)C(=Cc1ccccc1)c1ccccc1 (stereo not given)	True
O=c1cc[nH]cn1	False
O=C1c2ccccc2-c2ccccc21	True
N#CN=[N+]([O-])c1ccc([N+](=O)[O-])cc1	False
CCOC(=O)C(=Cc1ccc(OC)cc1OC)C(C)=O	True
NC(=O)c1ccc(Cl)cc1	False
NC(=O)/C=C/c1ccc2c(c1)OCO2	False
CC[C@H]1OC(=O)[C@H](C)[C@@H](OC2CC(C)(OC)C(O)C(C)O2)C(C)[C@@H](OC2OC(C)CC(N(C)C)C2O)[C@](C)(O)C[C@@H](C)C(=O)[C@H](C)[C@@H](O)[C@H]1C (stereo not given in full)	True

* * *

assay: method code SF, from Hansch, C. & Leo, A. (1987). Log P database [Dataset]. Pomona College Medicinal Chemistry Project.
Ranges used to classify logP: range A (below 1), range B (1 to below 2), range C (2 or more)

                                    molecule  category
 0                             c1ccn2nnnc2c1   range A
 1  Clc1ccc2[nH]c(CCCCCCc3nc4cc(Cl)ccc4[nH]3)nc2c1   range B
 2                              Cc1cc(C)ncn1   range A
 3                      CC(=O)Nc1cccc(C#N)c1   range B
 4                    CC(=O)Nc1ccccc1NC(C)=O   range A
 5                 Nc1ccc2ccccc2c1S(=O)(=O)O   range A
 6                        c1ccc(-n2cccn2)cc1   range C
 7                  CC(=O)C(Cc1ccccc1)C(C)=O   range B
 8  CC(=O)OC1CCCCC1NC(=O)N(CCCl)N=O (stereo not given)   range B
 9        N#Cc1ccc(OC(=O)CNC(=O)c2ccccc2)cc1   range C
10  CCOC(=O)Cn1ccnc1C=Cc1ccc([N+](=O)[O-])o1   range B
11                                FC(F)(F)Br   range B
12             CC(=O)C(=Cc1cccc(Cl)c1)C(C)=O   range C
13                        CCOC(=O)CCc1ccccc1   range C
14                         CC(=O)Oc1ccccc1Cl   range C

Origin of measurements: the SangsterLogP compilation
